species on record: Canis lupus familiaris; experiment: Inhibition of Mongrel dog ventricular muscle cAMP phosphodiesterase using adenosine 3',5' monophosphate as substrate at 100 uM by scintillation counting analysis in presence of [8-14C]adenosine relative to control
Measure: inhibition (%)

Here is how some molecules turned out for inhibition.
                                   molecule     measure  reading
0  COc1cc2c(cc1OC)C(c1ccccc1)NCC2.Cl (stereo not drawn)  inhibition       46
1  COc1cc2c(cc1O)C(c1ccccc1)NCC2 (stereo not drawn)  inhibition       19

A = Cc1ccc2c(c1)C(c1ccccc1)NCC2 (stereo not drawn)
B = COc1cc2c(cc1OC)C(c1cccc(C(F)(F)F)c1)NCC2 (stereo not drawn)
[in] Would you mind telling me which has the lower recorded inhibition between A and B ? // output: label of the selected item
[out] A

###

We begin with a simple list: items and their reported inhibition at 100 µM.
assay: Antiallergic activity in antiovalbumin serum sensitized guinea pig lung slices assessed as inhibition of ovalbumin-induced histamine release at 100 uM preincubated for 5 mins followed by ovalbumin challenge measured after 15 mins by fluorometric analysis relative to control; assay type: functional, Cavia porcellus; details: Cavia porcellus, Lung
Hi! Could you send only the number? It should be in %, unit omitted.

Here is how some compounds turned out for inhibition at 100 µM.
>>> print(df.to_string())
                                   compound               measure  reading
0  Cc1ccc2c(c1)C(c1ccccc1)NCC2 (centres undefined)  inhibition at 100 µM        0
1  COc1cc2c(cc1OC)C(c1ccc(C(C)(C)C)cc1)NCC2.Cl (centres undefined)  inhibition at 100 µM       13
2  COc1cc2c(cc1O)C(c1ccccc1)NCC2 (centres undefined)  inhibition at 100 µM       25

Please turn your attention to the following entry.
[in] For the compound COc1cc2c(cc1OC)C(c1ccccc1)NCC2.Cl (centres undefined) , report inhibition at 100 µM.
[out] 49

###

assay: Antiallergic activity in antiovalbumin serum sensitized guinea pig lung slices assessed as inhibition of ovalbumin-induced histamine release at 100 uM preincubated for 5 mins followed by ovalbumin challenge measured after 15 mins by fluorometric analysis relative to control; type: functional, Cavia porcellus; conditions: Cavia porcellus, Lung
Measure: inhibition at 100 µM (%)
Hi! Could you send only the number? It should be in %, unit omitted.

Here is how some compounds turned out for inhibition at 100 µM.
In [3]: df
Out[3]:
                                   compound               measure  reading
0  COc1cc2c(cc1OC)C(c1cccc(C(F)(F)F)c1)NCC2 (configuration not stated)  inhibition at 100 µM       55
1                 c1ccc(C2=NCCc3ccccc32)cc1  inhibition at 100 µM       17
2  COc1cc2c(cc1OC)C(C1CCCCC1)NCC2 (configuration not stated)  inhibition at 100 µM       66
3  COc1ccc2c(c1)C(c1ccccc1)NCC2.Cl (configuration not stated)  inhibition at 100 µM       60
4  c1ccc(C2NCCc3ccccc32)cc1 (configuration not stated)  inhibition at 100 µM       46

[in] For the compound `Cc1ccc2c(c1)C(c1ccccc1)=NCC2` , report inhibition at 100 µM.
[out] 6

[in] For the compound `COc1cc2c(cc1OC)C(c1cccc(C(F)(F)F)c1)=NCC2` , report inhibition at 100 µM.
[out] 16

[in] For the compound `COc1cc2c(cc1OCc1ccccc1)C(c1ccccc1)=NCC2` , report inhibition at 100 µM.
[out] 18

[in] For the compound `COc1cc2c(cc1O)C(c1ccccc1)=NCC2` , report inhibition at 100 µM.
[out] 36

[in] For the compound COc1cc2c(cc1OC)C(Cc1cc(OC)c(OCc3ccccc3)cc1Br)NCC2 (racemic) , report inhibition at 100 µM.
[out] 27

[in] For the compound COc1cc2c(cc1OCc1ccccc1)C(c1ccccc1)NCC2 (racemic) , report inhibition at 100 µM.
[out] 56

[in] For the compound `Clc1ccc2c(c1)C(c1ccccc1)=NCC2` , report inhibition at 100 µM.
[out] 0

###

organism: Canis lupus familiaris; assay: Inhibition of Mongrel dog ventricular muscle cAMP phosphodiesterase using adenosine 3',5' monophosphate as substrate at 100 uM by scintillation counting analysis in presence of [8-14C]adenosine relative to control
Measure: inhibition (%)

I = COc1cc2c(cc1OCc1ccccc1)C(c1ccccc1)NCC2 (racemic)
II = COc1cc2c(cc1OC)C(c1cccc(C(F)(F)F)c1)=NCC2
III = COc1cc2c(cc1OC)C(c1ccccc1OC)=NCC2
[in] Sort ascending by inhibition. Would you mind listing the labels in the order asked for?
[out] I, III, II
(I: 34%, III: 56%, II: 95%)

a = COc1ccc2c(c1)C(c1ccccc1)NCC2.Cl (configuration not stated)
b = COc1cc2c(cc1OC)C1C(=O)Cc3ccccc3CN1CC2 (configuration not stated)
[in] Would you mind telling me which has the lower recorded inhibition between a and b ? // output: label of the selected item
[out] a

1 = COc1cc2c(cc1OCc1ccccc1)C(c1ccccc1)=NCC2
2 = COc1cc2c(cc1OC)C(C1CCCCC1)NCC2 (configuration not stated)
3 = Clc1ccc2c(c1)C(c1ccccc1)=NCC2
[in] Order the items by recorded inhibition; the first position goes to the largest value. Would you mind listing the labels in the order asked for?
[out] 1, 3, 2
(1: 95%, 3: 44%, 2: 19%)

A = COc1cc2c(cc1OC)C(c1ccc(C(C)(C)C)cc1)NCC2.Cl (configuration not stated)
B = c1ccc(C2=NCCc3ccccc32)cc1
[in] Which record would sort first by descending inhibition, A or B ? // output: label of the selected item
[out] A

###

organism: Canis lupus familiaris; test: Inhibition of Mongrel dog ventricular muscle cAMP phosphodiesterase using adenosine 3',5' monophosphate as substrate at 100 uM by scintillation counting analysis in presence of [8-14C]adenosine relative to control
Measure: inhibition (%)

Here is how some compounds turned out for inhibition.
>>> print(df.to_string())
                                   compound     measure  u  reading
0            COc1cc2c(cc1O)C(c1ccccc1)=NCC2  inhibition  %       83
1  COc1cc2c(cc1OC)C(Cc1cc(OCc3ccccc3)c(OC)cc1Br)NCC2 (racemic)  inhibition  %       55
2           COc1cc2c(cc1OC)C(C1CCCCC1)=NCC2  inhibition  %       70
3                          c1ccc2c(c1)CCNC2  inhibition  %        0
4  COc1cc2c(cc1OC)C(c1ccccc1OC)NCC2 (centres undefined)  inhibition  %       34

A = COc1cc2c(cc1OC)C(c1nccc3cc(OC)c(OC)cc13)OC2=O (centres undefined)
B = Cc1ccc2c(c1)C(c1ccccc1)=NCC2
C = CCOC(=O)C(=O)N1CCc2cc(OC)c(OCc3ccccc3)cc2C1c1ccccc1 (centres undefined)
D = c1ccc(C2NCCc3ccccc32)cc1 (centres undefined)
[in] Order the items by recorded inhibition; the first position goes to the largest value. Would you mind listing the labels in the order asked for?
[out] B, A, D, C

###

experiment: Antiallergic activity in antiovalbumin serum sensitized guinea pig lung slices assessed as inhibition of ovalbumin-induced histamine release at 100 uM preincubated for 5 mins followed by ovalbumin challenge measured after 15 mins by fluorometric analysis relative to control; assay type: functional, Cavia porcellus; conditions: Cavia porcellus, Lung
Measure: inhibition at 100 µM (%)
Hi! Could you send only the number? It should be in %, unit omitted.

Here is how some compounds turned out for inhibition at 100 µM.
In [3]: df
Out[3]:
                                   compound  u  reading
0  COc1cc2c(cc1OC)C(Cc1cc(OCc3ccccc3)c(OC)cc1Br)NCC2 (racemic)  %       33
1  CCOC(=O)C(=O)N1CCc2cc(OC)c(OCc3ccccc3)cc2C1c1ccccc1 (stereo not given)  %        0
2                          c1ccc2c(c1)CCNC2  %       31
3  COc1cc2c(cc1OC)C1C(=O)Cc3ccccc3CN1CC2 (stereo not given)  %       43

Please turn your attention to the following entry.
[in] For the compound COc1cc2c(cc1OC)C(c1ccccc1OC)NCC2 (stereo not given) , report inhibition at 100 µM.
[out] 46
